Just for reference, patent US4870097A is where these values come from.

tested on: analgesic activity of morphine; test: Tail Flick Test: increase in the analgesic effect of morphine; assay type: in vivo, rats; conditions: 10'; compound 10 mg/kg i.p. + morphine 2 mg/kg (row Morphine: alone); ± S.E.
RECORDED_ENDPOINT: percentage variation in the latency of the pain sensation, 10'

- CCc1ccc(C(=O)N[C@@H](Cc2c[nH]c3ccccc23)C(=O)O)cc1: 41.9 ± 12.8%
- N#Cc1ccc(COC(=O)N[C@@H](Cc2c[nH]c3ccccc23)C(=O)O)cc1: 53.4 ± 13.5%
- N#Cc1cccc(C(=O)N[C@@H](Cc2c[nH]c3ccccc23)C(=O)O)c1: 18.7 ± 6.7%
- O=C(N[C@@H](Cc1c[nH]c2ccccc12)C(=O)O)OCc1ccc(Cl)c(Cl)c1: 68.6 ± 20.4%

---

Tested on: analgesic activity of morphine
Experiment: Tail Flick Test: increase in the analgesic effect of morphine
Format: in vivo, rats
Conditions: 20'; compound 10 mg/kg i.p. + morphine 2 mg/kg (row Morphine: alone); ± S.E.
Method: Increase in the analgesic effect of analgesic-narcotic drugs in rats in the Tail Flick Test The method is that described by Harris et al. (J. Pharmacol. Exp. Ther. 143 (1964) 141-148). Male rats are used which have a weight of about 150-200 g and which have not been fasting. A point is chosen on the tail and this is irradiated by a heat source (75° C.) and the time (in seconds) for which the animal remains without moving its tail is measured. […]
Measured percentage variation in the latency of the pain sensation, 20' values are reported for all entries that follow.
RECORDED_ENDPOINT: percentage variation in the latency of the pain sensation, 20' (%)

• O=C(N[C@@H](Cc1c[nH]c2ccccc12)C(=O)O)c1cccc(Cl)c1 = 39.5
• CCCCCc1ccc(C(=O)N[C@@H](Cc2c[nH]c3ccccc23)C(=O)O)cc1 = 63.7
• CCCCCCCc1ccc(C(=O)N[C@@H](Cc2c[nH]c3ccccc23)C(=O)O)cc1 = 95.2
• CC(C)Cc1ccc(C(=O)N[C@@H](Cc2c[nH]c3ccccc23)C(=O)O)cc1 = 61.9
• O=C(N[C@@H](Cc1c[nH]c2ccccc12)C(=O)O)OCc1ccc(I)cc1 = 76.9
• CCCCCCc1ccc(C(=O)N[C@@H](Cc2c[nH]c3ccccc23)C(=O)O)cc1 = 87.6
• N#Cc1ccc(C(=O)N[C@@H](Cc2c[nH]c3ccccc23)C(=O)O)cc1 = 66.3
• Cc1ccc(COC(=O)N[C@@H](Cc2c[nH]c3ccccc23)C(=O)O)cc1 = 38.4
• O=C(N[C@@H](Cc1c[nH]c2ccccc12)C(=O)O)c1ccc(Cl)cc1 = 50.5
• O=C(N[C@@H](Cc1c[nH]c2ccccc12)C(=O)O)c1ccc(Br)cc1 = 72.6
• O=C(N[C@@H](Cc1c[nH]c2ccccc12)C(=O)O)OCc1ccc(Cl)c(Cl)c1 = 78.0
• O=C(N[C@@H](Cc1c[nH]c2ccccc12)C(=O)O)OCc1cccc(Cl)c1 = 53.0
• CCc1ccc(COC(=O)N[C@@H](Cc2c[nH]c3ccccc23)C(=O)O)cc1 = 62.2
• Cc1ccc(COC(=O)N[C@@H](Cc2c[nH]c3ccccc23)C(=O)O)cc1Cl = 58.3
• CN1CC[C@]23c4c5ccc(O)c4O[C@H]2[C@@H](O)C=C[C@H]3[C@H]1C5 [Morphine, morphine, reference compound] = 54.2
• Cc1ccc(C(=O)N[C@@H](Cc2c[nH]c3ccccc23)C(=O)O)cc1 = 14.9
• O=C(N[C@@H](Cc1c[nH]c2ccccc12)C(=O)O)OCc1ccc(F)cc1 = 89.2
• O=C(N[C@@H](Cc1c[nH]c2ccccc12)C(=O)O)OC(c1ccccc1)c1ccccc1 = 87.6
• N#Cc1cccc(C(=O)N[C@@H](Cc2c[nH]c3ccccc23)C(=O)O)c1 = 60.7
• CCCCCCCCCc1ccc(C(=O)N[C@@H](Cc2c[nH]c3ccccc23)C(=O)O)cc1 = 100.0
• O=C(N[C@@H](Cc1c[nH]c2ccccc12)C(=O)O)c1ccc(F)cc1 = 90.2
• Cc1cccc(C(=O)N[C@@H](Cc2c[nH]c3ccccc23)C(=O)O)c1 = 89.0
• O=C(N[C@@H](Cc1c[nH]c2ccccc12)C(=O)O)c1ccc(I)cc1 = 81.7
• CCc1ccc(C(=O)N[C@@H](Cc2c[nH]c3ccccc23)C(=O)O)cc1 = 43.9
• CCCc1ccc(C(=O)N[C@@H](Cc2c[nH]c3ccccc23)C(=O)O)cc1 = 39.3
• N#Cc1ccc(COC(=O)N[C@@H](Cc2c[nH]c3ccccc23)C(=O)O)cc1 = 80.0
